Assay: Solubility of compound in simulated gastric fluid at pH 1.2 in absence of pepsin at 5 mg incubated at 25 degreeC for 6 hrs by UHPLC analysis
Assay type: ADME
Details: simulated gastric fluid without pepsin
PROPERTY_MEASURED: solubility at 6 h (µg/mL)
Provide only the numeric value, understood in µg/mL.

| RECORD_SMILES | solubility at 6 h (µg/mL) |
| --- | --- |
| CCCCC(=O)O[C@]1(C(=O)COC(=O)CN=C=S)[C@@H](C)C[C@H]2[C@@H]3CCC4=CC(=O)C=C[C@]4(C)[C@@]3(F)[C@@H](O)C[C@@]21C | 0.16 |

Need solubility at 6 h of C[C@]12C=CC(=O)C=C1CC[C@@H]1[C@@H]2C(=O)C[C@@]2(C)[C@H]1CC[C@]2(O)C(=O)COC(=O)CN=C=S , thanks.
16.1

The measurements presented in this section are drawn from ChEMBL document CHEMBL5579848.
